All values here come from the RNAGym collection of RNA variant scans (doi:10.1093/nar/gkz1192).

B1: CPEB3 Ribozyme (parent)
chain: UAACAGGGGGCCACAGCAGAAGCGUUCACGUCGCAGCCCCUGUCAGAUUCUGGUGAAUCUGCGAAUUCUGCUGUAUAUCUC

- Variants of: B1
- EXPERIMENT: self-cleavage, relative activity (ratio to wild type); higher = more cleavage; in vitro, sequencing
Decide by self-cleavage: equal to or exceeding 0.4 means Y, less means N.

1) U1G ... Y
2) A20U G42A ... Y
3) G7A G53A ... N
4) A3U U69C ... Y
5) G7A A18G ... N
6) C4U U31C ... Y
7) C29G U60C ... N
8) U25A A64U ... N
9) U1C U26C ... N
10) C14G A56G ... Y
11) G30A C34G ... N
12) G63A U67C ... N
13) G53A C79A ... Y
14) A15G G61A ... N
15) C11U U72G ... N
16) C38U A64C ... Y
17) U54C G73U ... Y
18) A5C A57G ... Y
19) U26A C44G ... Y
